- Test system: E. faecium
- test description: Broth microdilution MIC, European bacteraemia isolates 2010-2012
- Assay type: cell-based, Enterococcus faecium
- measurement conditions: Enterococcus faecium, Table 2; E. faecium Vancomycin-resistant (VanA-phenotype) (153); read-out: MIC 90%
Measured MIC90 of individual entries

CC[C@H]1OC(=O)[C@H](C)[C@@H](O[C@H]2C[C@@](C)(OC)[C@@H](O)[C@H](C)O2)[C@H](C)[C@@H](O[C@@H]2O[C@H](C)C[C@H](N(C)C)[C@H]2O)[C@](C)(O)C[C@@H](C)C(=O)[C@H](C)[C@@H](O)[C@]1(C)O [Erythromycin]: > 4 µg/mL
CC(=O)NC[C@H]1CN(c2ccc(N3CCOCC3)c(F)c2)C(=O)O1 [Linezolid, linezolid]: 2 µg/mL

Reported MIC90, compound C[C@H]1COc2c(N3CCN(C)CC3)c(F)cc3c(=O)c(C(=O)O)cn1c23 [Levofloxacin] : ____
> 4 µg/mL

Reported MIC90, compound CC1(C)S[C@@H]2[C@H](NC(=O)[C@H](N)c3ccccc3)C(=O)N2[C@H]1C(=O)O [Ampicillin] : ____
> 8 µg/mL

---

- Tested on: E. faecalis
- test description: Broth microdilution MIC, European bacteraemia isolates 2010-2012
- Format: cell-based, Enterococcus faecalis
- measurement conditions: E. faecalis (445); CLSI M100-S23 breakpoints
Measured % Resistant, CLSI of individual entries
Please append the unit to your numeric answer.

Example results:
CN(C)[C@@H]1C(O)=C(C(N)=O)C(=O)[C@@]2(O)C(O)=C3C(=O)c4c(O)cccc4[C@@](C)(O)[C@H]3C[C@@H]12: 73.5%
CC1(C)S[C@@H]2[C@H](NC(=O)[C@H](N)c3ccccc3)C(=O)N2[C@H]1C(=O)O: 0.0%
CC(=O)NC[C@H]1CN(c2ccc(N3CCOCC3)c(F)c2)C(=O)O1: 0.0%
C[C@H]1COc2c(N3CCN(C)CC3)c(F)cc3c(=O)c(C(=O)O)cn1c23: 35.3%

Reported % Resistant, CLSI, compound `CC[C@H]1OC(=O)[C@H](C)[C@@H](O[C@H]2C[C@@](C)(OC)[C@@H](O)[C@H](C)O2)[C@H](C)[C@@H](O[C@@H]2O[C@H](C)C[C@H](N(C)C)[C@H]2O)[C@](C)(O)C[C@@H](C)C(=O)[C@H](C)[C@@H](O)[C@]1(C)O` : ____
54.8%

Reported % Resistant, CLSI, compound `CN[C@H](CC(C)C)C(=O)N[C@H]1C(=O)N[C@@H](CC(N)=O)C(=O)N[C@H]2C(=O)N[C@H]3C(=O)N[C@H](C(=O)N[C@H](C(=O)O)c4cc(O)cc(O)c4-c4cc3ccc4O)[C@H](O)c3ccc(c(Cl)c3)Oc3cc2cc(c3O[C@@H]2O[C@H](CO)[C@@H](O)[C@H](O)[C@H]2O[C@H]2C[C@](C)(N)[C@H](O)[C@H](C)O2)Oc2ccc(cc2Cl)[C@H]1O` : ____
0.9%

---

Measured MIC50 of individual entries
- Tested on: Coagulase-negative staphylococci
- test description: Broth microdilution MIC, European bacteraemia isolates 2010-2012
- Assay type: cell-based, coagulase-negative staphylococci (CoNS)
- measurement conditions: Table 2; Coagulase-negative staphylococci (646); read-out: MIC 50%

Example results:
CC[C@H]1OC(=O)[C@H](C)[C@@H](O[C@H]2C[C@@](C)(OC)[C@@H](O)[C@H](C)O2)[C@H](C)[C@@H](O[C@@H]2O[C@H](C)C[C@H](N(C)C)[C@H]2O)[C@](C)(O)C[C@@H](C)C(=O)[C@H](C)[C@@H](O)[C@]1(C)O: > 4 µg/mL
CN(C)[C@@H]1C(O)=C(C(N)=O)C(=O)[C@@]2(O)C(O)=C3C(=O)c4c(O)cccc4[C@@](C)(O)[C@H]3C[C@@H]12: 1 µg/mL
Cc1onc(-c2ccccc2)c1C(=O)N[C@@H]1C(=O)N2[C@@H]1SC(C)(C)[C@@H]2C(=O)O: > 2 µg/mL
CCCCCCCCCC(=O)N[C@@H](Cc1c[nH]c2ccccc12)C(=O)N[C@H](CC(N)=O)C(=O)N[C@@H](CC(=O)O)C(=O)N[C@@H]1C(=O)NCC(=O)N[C@@H](CCCN)C(=O)N[C@@H](CC(=O)O)C(=O)N[C@H](C)C(=O)N[C@@H](CC(=O)O)C(=O)NCC(=O)N[C@H](CO)C(=O)N[C@@H]([C@H](C)CC(=O)O)C(=O)N[C@@H](CC(=O)c2ccccc2N)C(=O)O[C@@H]1C: 0.25 µg/mL
C[C@H]1COc2c(N3CCN(C)CC3)c(F)cc3c(=O)c(C(=O)O)cn1c23: 4 µg/mL
CCC[C@@H]1C[C@@H](C(=O)N[C@@H]([C@H]2O[C@H](SC)[C@H](O)[C@@H](O)[C@H]2O)[C@H](C)Cl)N(C)C1: ≤ 0.25 µg/mL

Enter reported MIC50 observed with Coagulase-negative staphylococci for `CC(=O)NC[C@H]1CN(c2ccc(N3CCOCC3)c(F)c2)C(=O)O1`
0.5 µg/mL

---

- Test system: E. faecium
- test description: Broth microdilution MIC, European bacteraemia isolates 2010-2012
- Format: cell-based, Enterococcus faecium
- measurement conditions: Enterococcus faecium, Table 2; E. faecium Vancomycin-resistant (VanA-phenotype) (153); read-out: MIC 90%
assay endpoint: MIC90 (µg/mL)
Numbers only here, please. The scale is µg/mL.

Reported MIC90, molecule `CCCCCCCCCC(=O)N[C@@H](Cc1c[nH]c2ccccc12)C(=O)N[C@H](CC(N)=O)C(=O)N[C@@H](CC(=O)O)C(=O)N[C@@H]1C(=O)NCC(=O)N[C@@H](CCCN)C(=O)N[C@@H](CC(=O)O)C(=O)N[C@H](C)C(=O)N[C@@H](CC(=O)O)C(=O)NCC(=O)N[C@H](CO)C(=O)N[C@@H]([C@H](C)CC(=O)O)C(=O)N[C@@H](CC(=O)c2ccccc2N)C(=O)O[C@@H]1C` : ____
2

---

Measured % Resistant, EUCAST of individual entries
- Tested on: S. aureus
- test description: Broth microdilution MIC, European bacteraemia isolates 2010-2012
- Format: cell-based
- measurement conditions: S. aureus Methicillin-resistant (1,708); EUCAST 2013 breakpoints
Numbers only here, please. The scale is %.

CN[C@H](CC(C)C)C(=O)N[C@H]1C(=O)N[C@@H](CC(N)=O)C(=O)N[C@H]2C(=O)N[C@H]3C(=O)N[C@H](C(=O)N[C@H](C(=O)O)c4cc(O)cc(O)c4-c4cc3ccc4O)[C@H](O)c3ccc(c(Cl)c3)Oc3cc2cc(c3O[C@@H]2O[C@H](CO)[C@@H](O)[C@H](O)[C@H]2O[C@H]2C[C@](C)(N)[C@H](O)[C@H](C)O2)Oc2ccc(cc2Cl)[C@H]1O: 0.0
CCC[C@@H]1C[C@@H](C(=O)N[C@@H]([C@H]2O[C@H](SC)[C@H](O)[C@@H](O)[C@H]2O)[C@H](C)Cl)N(C)C1: 40.9
CC[C@H]1OC(=O)[C@H](C)[C@@H](O[C@H]2C[C@@](C)(OC)[C@@H](O)[C@H](C)O2)[C@H](C)[C@@H](O[C@@H]2O[C@H](C)C[C@H](N(C)C)[C@H]2O)[C@](C)(O)C[C@@H](C)C(=O)[C@H](C)[C@@H](O)[C@]1(C)O: 69.1
CCCCCCCCCC(=O)N[C@@H](Cc1c[nH]c2ccccc12)C(=O)N[C@H](CC(N)=O)C(=O)N[C@@H](CC(=O)O)C(=O)N[C@@H]1C(=O)NCC(=O)N[C@@H](CCCN)C(=O)N[C@@H](CC(=O)O)C(=O)N[C@H](C)C(=O)N[C@@H](CC(=O)O)C(=O)NCC(=O)N[C@H](CO)C(=O)N[C@@H]([C@H](C)CC(=O)O)C(=O)N[C@@H](CC(=O)c2ccccc2N)C(=O)O[C@@H]1C: 0.0
C[C@H]1COc2c(N3CCN(C)CC3)c(F)cc3c(=O)c(C(=O)O)cn1c23: 90.3

Reported % Resistant, EUCAST, molecule `CN(C)[C@@H]1C(O)=C(C(N)=O)C(=O)[C@@]2(O)C(O)=C3C(=O)c4c(O)cccc4[C@@](C)(O)[C@H]3C[C@@H]12` : ____
15.1

Reported % Resistant, EUCAST, molecule `CC(=O)NC[C@H]1CN(c2ccc(N3CCOCC3)c(F)c2)C(=O)O1` : ____
0.0

---

- Test system: S. aureus
- test description: Broth microdilution MIC, European bacteraemia isolates 2010-2012
- Format: cell-based
- measurement conditions: S. aureus Methicillin-resistant (1,708); EUCAST 2013 breakpoints
Measured % Susceptible, EUCAST of individual entries
Numbers only here, please. The scale is %.

Example results:
CN(C)[C@@H]1C(O)=C(C(N)=O)C(=O)[C@@]2(O)C(O)=C3C(=O)c4c(O)cccc4[C@@](C)(O)[C@H]3C[C@@H]12: 84.4
CC(=O)NC[C@H]1CN(c2ccc(N3CCOCC3)c(F)c2)C(=O)O1: 100.0

Let us move to another entry and its % Susceptible, EUCAST.
Reported % Susceptible, EUCAST, compound `CN[C@H](CC(C)C)C(=O)N[C@H]1C(=O)N[C@@H](CC(N)=O)C(=O)N[C@H]2C(=O)N[C@H]3C(=O)N[C@H](C(=O)N[C@H](C(=O)O)c4cc(O)cc(O)c4-c4cc3ccc4O)[C@H](O)c3ccc(c(Cl)c3)Oc3cc2cc(c3O[C@@H]2O[C@H](CO)[C@@H](O)[C@H](O)[C@H]2O[C@H]2C[C@](C)(N)[C@H](O)[C@H](C)O2)Oc2ccc(cc2Cl)[C@H]1O` : ____
100.0
